Provenance of the data: ChEMBL document CHEMBL3286157

Biological target: DNA polymerase beta (Rattus norvegicus) (UniProt P06766)
Assay: Inhibition of rat recombinant DNA polymerase beta expressed in Escherichia coli JMpbeta5 cells assessed as incorporation of [3H]dTTP into poly(dA)/oligo(dT)18 DNA-template primer at 100 uM after 60 mins
Activity calls are given as the source filed them. No cut-off for these calls is given here.
experimental_endpoint: inhibition

Name the recorded inhibition for CC1=CC[C@H]2[C@@H]3[C@H](O)[C@@H](/C=C/C=C/C(=O)O)O[C@@H]4[C@H](C)CCO[C@@]4(C)[C@@H]3C(C)=C[C@@H]2C1 . Active

Form field: reported inhibition of CC[C@@H](C)[C@H]1O[C@H](/C=C/C=C/C(=O)O)[C@@H](O)[C@@]2(O)[C@@H]3CC=C(C)C[C@H]3C=C(C)[C@H]2[C@]1(C)O Active

Looking for the measured inhibition of C=C1[C@@H]([C@H](C)CC)O[C@H](/C=C/C=C/C(=O)O)[C@@H](O)[C@H]2[C@@H]3CC=C(C)C[C@H]3C=C(C)[C@@]12O , can you help? Active

----------
Target: DNA polymerase beta (Rattus norvegicus)
Assay: Inhibition of rat recombinant DNA polymerase beta expressed in Escherichia coli JMpbeta5 cells assessed as incorporation of [3H]dTTP into poly(dA)/oligo(dT)18 DNA-template primer after 60 mins
experimental_endpoint: IC50 (µM)

# query: IC50 of entry CC[C@@H](C)[C@H]1O[C@]1(C)[C@@H]1C(C)=C[C@@H]2CC(C)=CC[C@H]2[C@@H]1/C=C/C=C/C=C/C(=O)O 9.5

Give the measured IC50 of Cc1cn([C@H]2CC[C@@H](COP(=O)(O)OP(=O)(O)OP(=O)(O)O)O2)c(=O)[nH]c1=O . 30.8

A = C=C1[C@@H]2C(C)=C[C@@H]3CC(C)=CC[C@H]3[C@@H]2[C@H](O)[C@@H](/C=C/C=C/C(=O)O)O[C@@H]1[C@H](C)CC
B = CC1=CC[C@H]2[C@@H]3[C@H](O)[C@@H](/C=C/C=C/C(=O)O)O[C@@H]4[C@H](C)CCO[C@@]4(C)[C@@H]3C(C)=C[C@@H]2C1
Identify the entry with the larger IC50. Options: A and B Your answer should be the label of the entry you select. B

----------
Target: DNA polymerase beta (Rattus norvegicus)
Test: Inhibition of rat recombinant DNA polymerase beta expressed in Escherichia coli JMpbeta5 cells assessed as incorporation of [3H]dTTP into poly(dA)/oligo(dT)18 DNA-template primer at 100 uM after 60 mins
Activity calls are given as the source filed them. The calls are words filed in the database; no cut-off is given here.
experimental_endpoint: inhibition

Item under review: C=C1[C@@H]2C(C)=C[C@@H]3CC(C)=CC[C@H]3[C@@H]2[C@H](O)[C@@H](/C=C/C=C/C(=O)O)O[C@@H]1[C@H](C)CC . Reported inhibition? Active

Need inhibition, item CC[C@@H](C)[C@H]1O[C@]1(C)[C@@H]1C(C)=C[C@@H]2CC(C)=CC[C@H]2[C@@H]1/C=C/C=C/C=C/C(=O)O Active

Returns the measured inhibition for the input compound. Input: CC1=CC[C@@H]2[C@H](C=C(C)[C@H]3[C@]4(C)OCC[C@@H](C)[C@H]4O[C@H](/C=C/C=C/C(=O)O)[C@@H](O)[C@@]23O)C1 Active
